Where do the numbers come from? From ChEMBL document CHEMBL1145092.

Assay: Half life (t1/2) was determined
Format: ADME
Classes (Log t1/2): 0 (below 0.3), 1 (0.3 to below 0.9), 2 (0.9 or more)

INSERT INTO results (molecular_string, assigned_category) VALUES
  ('CCCCCCCCCCCCCCCC(=O)OCC[n+]1ccccc1.[Br-]', 2),
  ('CCCCCCCCCCCCCCCC(=O)OCC[N+](CCCC)(CCCC)CCCC', 0),
  ('CCCCCCCCCCCCCCCCOC(=O)C[n+]1ccccc1', 0),
  ('CCCCCCCCCCCCCCCCCCNC(=O)C[n+]1ccccc1', 1),
  ('CCCCCCCC(=O)OCC[n+]1ccccc1.[Br-]', 1),
  ('CCCCCCCCCCCC(=O)OCC[N+](CCCC)(CCCC)CCCC', 0),
  ('CCCCCCCCCCCCCCCC(=O)OCCC[n+]1ccccc1', 2),
  ('CCCCCCCCCCCC(=O)OCCC[n+]1ccccc1', 2),
  ('CCCCCCCCCCCC(=O)OCC[N+](CC)(CC)CC.[Br-]', 1),
  ('CCCCCCCCCCCC(=O)OCC[n+]1ccccc1.[Br-]', 1),
  ('CCCCCCOC(=O)C[n+]1ccccc1', 0),
  ('CCCCCCCC/C=C/CCCCCCCC(=O)OCC[n+]1ccccc1.[Br-]', 2),
  ('CCCCCCCCCCCCCCCCCCOC(=O)C[n+]1ccccc1', 0);

----------
Tested on: Escherichia coli
Experiment: Minimum concentration required to inhibit Escherichia coli ATCC 25922
Assay type: functional
Reported log10(MIC) values for a set of molecules
test_readout: log10(MIC) (log10 of the value in µg/mL)

INSERT INTO assay_data (molecular_string, measured_on, measured_number) VALUES
  ('CC(=O)OC[n+]1ccccc1.[Cl-]', 'Escherichia coli', 3.51),
  ('CCCCCCCCCCCC(=O)OCC[N+](CCCC)(CCCC)CCCC', 'Escherichia coli', 2.10),
  ('CCCCCCCCCCCC(=O)OCC[N+](C)(C)C', 'Escherichia coli', 1.81),
  ('CCCCCCCCCCCCCCCC(=O)NCC[n+]1ccccc1.[Cl-]', 'Escherichia coli', 1.78),
  ('CCCCCCCCCCCC(=O)OCC[N+](CC)(CC)CC.CCCCCCCCCCCC(=O)OCC[N+](CCCC)(CCCC)CCCC.CCCCCCCCCCCC(=O)OCC[n+]1ccccc1.CCCCCCCCCCCCNC(=O)C[n+]1ccccc1.[Br-].[Br-].[Br-].[Br-]', 'Escherichia coli', 2.10),
  ('CCCCCCCCCCCC(=O)OCC[n+]1ccccc1.[Br-]', 'Escherichia coli', 1.40),
  ('CCCCCCCCCCCCCCCC(=O)OCC[n+]1ccccc1.[Br-]', 'Escherichia coli', 1.51),
  ('CCCCCCCCCCCCCCCCCCNC(=O)C[n+]1ccccc1.CCCCCCCCCCCCNC(=O)C[n+]1ccccc1.[Cl-].[Cl-]', 'Escherichia coli', 2.10),
  ('CCCCCCCCCCCCCCCC(=O)OCCC[n+]1ccccc1', 'Escherichia coli', 2.40);

----------
Test system: Escherichia coli
Assay: Minimum concentration required to inhibit Escherichia coli ATCC 25922
Assay type: functional
test_readout: MIC (µg/mL)

INSERT INTO results (molecular_string, test_readout, measured_number) VALUES
  ('CCCCCCCCCCCCNC(=O)C[n+]1ccccc1', 'MIC', 125),
  ('CCCCCCCCCCCC(=O)OCC[N+](CC)(CC)CC.CCCCCCCCCCCCCCCC(=O)OCC[N+](CC)(CC)CC.[Br-].[Br-]', 'MIC', 500),
  ('CCCCCCCCCCCCCCCCCCNC(=O)C[n+]1ccccc1', 'MIC', 1000),
  ('CCCCCCCCCCCCCCCCOC(=O)C[n+]1ccccc1', 'MIC', 6400),
  ('CCCCCCCC/C=C/CCCCCCCC(=O)OCC[n+]1ccccc1.[Br-]', 'MIC', 62);

----------
Listed below: Log TCID50 values for each entry.
Tested on: Human alphaherpesvirus 1
Assay: Tested for antiviral activity against HSV-1 at a concentration of 12.5 ug/mL after 2 hr of treatment at 37 degrees C
Assay type: functional, herpes simplex virus
test_readout: Log TCID50

INSERT INTO assay_data (molecular_string, measured_on, test_readout, measured_number) VALUES
  ('CCCCCCCCCCCC(=O)OCC[n+]1ccccc1.[Br-]', 'Human alphaherpesvirus 1', 'Log TCID50', 6.8),
  ('CCCCCCCCCCCCCCCC(=O)OCC[N+](CC)(CC)CC.[Br-]', 'Human alphaherpesvirus 1', 'Log TCID50', 7),
  ('CCCCCCCCCCCCNC(=O)C[n+]1ccccc1', 'Human alphaherpesvirus 1', 'Log TCID50', 6.57),
  ('CCCCCCCCCCCC(=O)OCC[N+](CCCC)(CCCC)CCCC', 'Human alphaherpesvirus 1', 'Log TCID50', 7),
  ('CCCCCCCCCCCCCCCC(=O)NCC[n+]1ccccc1.[Cl-]', 'Human alphaherpesvirus 1', 'Log TCID50', 6.07),
  ('CCCCCCCCCCCCCCCCCC(=O)OCC[n+]1ccccc1.[Br-]', 'Human alphaherpesvirus 1', 'Log TCID50', 6.1);

----------
Test system: Escherichia coli
Assay: Minimum concentration required to inhibit Escherichia coli ATCC 25922
Assay type: functional
Examples of compounds with documented MIC follow.
test_readout: MIC (µg/mL)

INSERT INTO results (molecular_string, measured_on, test_readout, readout_qualifier, measured_number) VALUES
  ('CCCCCCOC(=O)C[n+]1ccccc1', 'Escherichia coli', 'MIC', '>', 12800),
  ('CCCCCCCCCCCC(=O)OCC[n+]1ccccc1.CCCCCCCCCCCCCCCC(=O)OCC[n+]1ccccc1.CCCCCCCCCCCCCCCCCC(=O)OCC[n+]1ccccc1.[Br-].[Br-].[Br-]', 'Escherichia coli', 'MIC', '=', 125),
  ('O=C(O)CC[n+]1ccccc1', 'Escherichia coli', 'MIC', '>', 1000),
  ('CCCCCCCCCCCCCCCCCCOC(=O)C[n+]1ccccc1', 'Escherichia coli', 'MIC', '>', 12800),
  ('CCCCCCCCCCCC(=O)OCCC[n+]1ccccc1', 'Escherichia coli', 'MIC', '=', 125),
  ('CCCCCCCCCCCCCCCCCC(=O)OCC[n+]1ccccc1.[Br-]', 'Escherichia coli', 'MIC', '=', 500),
  ('O=C(O)C[n+]1ccccc1', 'Escherichia coli', 'MIC', '=', 12800),
  ('CCCCCCCCCCCCCCCCOC(=O)CC[n+]1ccccc1', 'Escherichia coli', 'MIC', '>', 1000);

----------
Test system: Escherichia coli
Assay: Minimum concentration required to inhibit Escherichia coli ATCC 25922
Assay type: functional
test_readout: log10(MIC) (log10 of the value in mg/L)

INSERT INTO assay_data (molecular_string, test_readout, measured_number) VALUES
  ('CCCCCCCCCCCC(=O)OCC[N+](CC)(CC)CC.[Br-]', 'log10(MIC)', 1.20),
  ('CCCCCCCC(=O)OCC[n+]1ccccc1.[Br-]', 'log10(MIC)', 3.00),
  ('CCCCCCCCCCCC(=O)OCC[N+](CCCC)(CCCC)CCCC.CCCCCCCCCCCCCCCC(=O)OCC[N+](CCCC)(CCCC)CCCC.[Br-].[Br-]', 'log10(MIC)', 2.40),
  ('CCCCCCCCCCCCCCCC(=O)OCC[N+](CCCC)(CCCC)CCCC', 'log10(MIC)', 2.10),
  ('CCCCCCCCCCCCCCCC(=O)OCC[N+](CC)(CC)CC.[Br-]', 'log10(MIC)', 1.81),
  ('CCCCCCCCCCCC(=O)OCC[N+](CC)(CC)CC.CCCCCCCCCCCC(=O)OCC[n+]1ccccc1.[Br-].[Br-]', 'log10(MIC)', 2.10),
  ('CCCCCCCCCCCC(=O)OC[n+]1ccccc1.[Cl-]', 'log10(MIC)', 2.00);

----------
Property: MIC; scope: individual compounds
Test system: Escherichia coli
Assay: Minimum concentration required to inhibit Escherichia coli ATCC 25922
Type: functional
test_readout: MIC

INSERT INTO results (compound, measured_on, result) VALUES
  ('CCOC(=O)C(C)[n+]1ccccc1 (centres undefined)', 'Escherichia coli', '> 12800 µg/mL'),
  ('C[N+](C)(C)CCO [CHOLINE]', 'Escherichia coli', '> 2000 µg/mL'),
  ('CCOC(=O)C[n+]1ccccc1', 'Escherichia coli', '> 12800 µg/mL'),
  ('CC[N+](CC)(CC)CCO.[Br-]', 'Escherichia coli', '> 1000 µg/mL');
